Each item that follows carries a reported PET hydrolysis.
test: PET hydrolysis, aromatic products released after 48 h (umol product/mg enzyme); higher = more PET depolymerization activity; conditions: substrate: cryPow; 60 °C; pH 5.5

[
  {
    "INPUT SEQUENCE": "VQIGPAPTKASLEASRGPFTVATTRLSANGHGGGTIYYPTNAGAKVGVIAIVPGYLSYQSSIEWWGPRLASHGFAVVTIDTLTIYDQPSSRSSQQLRALDQVVALGSKSTSPLYNKVDGSRTGVMGWSMGGGGSLISAQNRPSIKAAAPQAPWNTTSNFSSLTVPTLIFACQADVVAPILSHAVPFYNSMSRNPKQYLERTAGDHFCFNNANPTVGLKGVAWMKRFIDGDTRYTSFACSNPNALGFSSFRTERCS [ESM053]",
    "PET hydrolysis": "< 3"
  }
]

Input: # query: PET hydrolysis of entry ADNPYQRGPDPTQSSVSASRGTFATAQVGVPAGNGFGGGVIYHPTDTSQGTFGAVAIVPGYTATWAAEGAWMGHWLASFGFVVIGIDTNNRNDWDTARGTQLLAALDYLTQRSSVRDRVDPSRTAVMGHSMGGGGAMYAALQRPSLKTAVGLAPFSPSQNLTTTRVPTMLLSGQNDTTTTPASIVNLYNGIPSSVEKAYLELTGAGHGFPTSNNSTMMRNVIPWLKIFVDSDTRYTQFLCPLSDSNGIRTYQNTCPLVPSPVPTTTSTTSSTSTTTTSTTTTTTTSVPVGACSATYRTTNAWSGGYQGEVTVAAGDSAVNGWTVRWTLDSGQTISQVWNGTLSATGSAVSVRNASYNGSLRPGTSTTFGFIAGGAPSTPVLSCTSP [DP072]
Output: < 3

----------
assay: purified protein yield per well (BCA); higher = higher soluble expression
ENDPOINT: purified protein yield per well

Past entries and their recorded results:
[
  {
    "INPUT SEQUENCE": "AAPATAPSVQRAAANPHERGPAPTEESITAEEGPFEFETIDVPAGSGDGFNQGTIYAPTDLSQGTFGAIAVSPGFVSPEALISWYGPRLASQGFVVMTIETNTLLDQPAARGDQLLAALDYLTGGDSPVRDRVDTGRLAVTGHSMGGGGTLEAARERPGLRAAVPLAPWNLNSDWSAVRTPTMILGAQNDFIAANGLHSEPFYEGLTSAPEKAYAEIANTGHMSFNTPNDVIAKYTIAWMKRYVDDDTRYERFLCPAPSDDPALVEYRDTCPGG [TEP002]",
    "purified protein yield per well": "< 25 µg"
  },
  {
    "INPUT SEQUENCE": "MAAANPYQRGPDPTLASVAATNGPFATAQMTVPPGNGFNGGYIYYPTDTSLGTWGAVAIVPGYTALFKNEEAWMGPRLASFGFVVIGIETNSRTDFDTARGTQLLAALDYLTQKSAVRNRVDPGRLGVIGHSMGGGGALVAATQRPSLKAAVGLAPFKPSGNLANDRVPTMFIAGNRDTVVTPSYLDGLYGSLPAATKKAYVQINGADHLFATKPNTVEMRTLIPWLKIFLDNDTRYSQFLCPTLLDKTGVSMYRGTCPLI [TEP109]",
    "purified protein yield per well": "285 µg"
  },
  {
    "INPUT SEQUENCE": "SPVLALVAGPALANPYQRGPDPTDASITAETGPFKTASVVVPSNTDPGFAGGTIYYPTDTSQGTFAPIVVTPGFVSPQWAISWYGPRLASQGFVVMTIDTLGLFDVVDQRGKEMLAALDYLTNRSAVKDRIDPTRPGLMGHSMGGGGVIRAAAERPGIKAVVPLAPWDPNSSYAWNVKADTLVVGGESDMIAPVAANAEPIYKDLRSAPEKAYLELSGADHVFAFNLPNTTIAKYAIAWMKRFLDDDVRYDRFLCPAPAPGGAIKQYQDTCPNG [TEP158]",
    "purified protein yield per well": "< 25 µg"
  },
  {
    "INPUT SEQUENCE": "ADNPYQRGPDPTQSSVSASRGTFATAQVGVPAGNGFGGGVIYHPTDTSQGTFGAVAIVPGYTATWAAEGAWMGHWLASFGFVVIGIDTNNRNDWDTARGTQLLAALDYLTQRSSVRDRVDPSRTAVMGHSMGGGGAMYAALQRPSLKTAVGLAPFSPSQNLTTTRVPTMLLSGQNDTTTTPASIVNLYNGIPSSVEKAYLELTGAGHGFPTSNNSTMMRNVIPWLKIFVDSDTRYTQFLCPLSDSNGIRTYQNTCPLVPSPVPTTTSTTSSTSTTTTSTTTTTTTSVPVGACSATYRTTNAWSGGYQGEVTVAAGDSAVNGWTVRWTLDSGQTISQVWNGTLSATGSAVSVRNASYNGSLRPGTSTTFGFIAGGAPSTPVLSCTSP [DP072]",
    "purified protein yield per well": "89 µg"
  }
]

Okay, now this sequence:
Input: What measured purified protein yield per well goes with APNAAIAAAPRVAPAANPYERGPAPTEESVKAEKGPFDIAQMPVPGGAGVFGGGTIWYPKDEAGPFGAVVVSPGFMTLEPLIQWYGRTLASHGFVVMTMATITPIDPPFSRGDELRSALDYLVTKSTVKDKIDPTRTALMGHSMGGGGTLDAASKLPDLKAAIPLAPWNLDYAPPAKIKAPTLIIGADNDPIAPTAAFADPFYAALTTQNRAYLKLKNAGHTFSFLGYNPTITKYTVSWLKRFVDNDTRYDQFLCPIPAASDTVAAYQGTCPLT [DP091] ?
Output: 32 µg
